- Measurement target: 3',5'-cyclic-AMP phosphodiesterase 4B (Homo sapiens)
- Protocol details: qHTS Assay for Inhibitors of PDE-IV (AID 607)
- Experimental setup: HEK293 ACTOne CNG channel cells, membrane potential fluorescence; series mostly up to 22.9 µM
Results filed as inconclusive are left out. Active and inactive are the calls of the source. The call rests on the fitted dose curve; in most records, active means well fitted activation curve with a large enough effect in the main read-out, with a control signal flat (not every such curve was filed as active); inconclusive means small, poorly fitted or top-dose-only effect, or effect the other way, or a change in a side signal; inactive means flat fitted curve, though single readings scatter.
Metric name: outcome

INSERT INTO measurements (molecule, metric_name, endpoint_result) VALUES
  ('COCCn1c(=O)c(-c2ccc(F)cc2)nc2cnc(Nc3cccc(OC)c3)nc21', 'outcome', 'inactive'),
  ('COc1ccc(-c2oc3ccc(C)cc3c(=O)c2O)cc1OC', 'outcome', 'inactive'),
  ('COc1ccc2[nH]cc(CCNc3ncncc3-c3ccccc3OC)c2c1', 'outcome', 'inactive'),
  ('COc1cccc(-c2cncnc2NCCc2c[nH]c3ccc(OC)cc23)c1', 'outcome', 'inactive'),
  ('Cn1cc(-c2nc3cnc(N4CCNCC4)nc3n(CCc3ccccc3)c2=O)c2ccccc21', 'outcome', 'inactive'),
  ('c1cn(-c2ncnc3ccc(-c4ccoc4)cc23)cn1', 'outcome', 'inactive'),
  ('CC(=O)[C@@]1(O)Cc2c(O)c3c(c(O)c2[C@H](O[C@H]2C[C@H](N)[C@H](O)[C@H](C)O2)C1)C(=O)c1ccccc1C3=O', 'outcome', 'inactive'),
  ('COCCn1c(=O)c(-c2cccc(C#N)c2)nc2cnc(Oc3cccc(Cl)c3)nc21', 'outcome', 'inactive'),
  ('Cn1c(=O)c(-c2ccccc2)nc2cnc(N3CCOCC3)nc21', 'outcome', 'inactive'),
  ('COc1ccc2[nH]cc(CCNc3ncncc3-c3ccc4c(c3)OCO4)c2c1', 'outcome', 'inactive');
